Assay: Selectivity index, ratio of CC50 for cytotoxicity against HEK293T cells to IC50 of antiviral activity against HIV1
Assay type: toxicity, cell-based
Details: human, read-out: Ratio CC50/IC50
measurement_name: selectivity ratio

Field: example entries. Status: answers known.
- smiles_representation: "CC(C)CN(C[C@@H](O)[C@H](Cc1ccccc1)NC(=O)[C@@H]1CCCN(C)C1)S(=O)(=O)c1ccc(N)cc1"
  selectivity ratio: "> 74100"
- smiles_representation: "CC(C)CN(C[C@@H](O)[C@H](Cc1ccccc1)NC(=O)[C@@H]1CCCNC1)S(=O)(=O)c1ccc(N)cc1"
  selectivity ratio: "> 82600"
- smiles_representation: "COc1ccc(S(=O)(=O)N(CC(C)C)C[C@@H](O)[C@H](Cc2ccccc2)NC(=O)OC[C@H]2CCCNC2)cc1"
  selectivity ratio: "> 74100"

Give me measured selectivity ratio, please, for this molecule: `CC(C)CN(C[C@@H](O)[C@H](Cc1ccccc1)NC(=O)[C@@H]1CCCCN1)S(=O)(=O)c1ccc(N)cc1`
> 11100

Give me measured selectivity ratio, please, for this molecule: `COc1ccc(S(=O)(=O)N(CC(C)C)C[C@@H](O)[C@H](Cc2ccccc2)NC(=O)[C@@H]2CCCN(C)C2)cc1`
> 556000

Give me measured selectivity ratio, please, for this molecule: `CC(C)CN(C[C@@H](O)[C@H](Cc1ccccc1)NC(=O)OC[C@H]1CCCNC1)S(=O)(=O)c1ccc(N)cc1`
> 22100

Give me measured selectivity ratio, please, for this molecule: `COc1ccc(S(=O)(=O)N(CC(C)C)C[C@@H](O)[C@H](Cc2ccccc2)NC(=O)C2CCNCC2)cc1`
> 40800

Give me measured selectivity ratio, please, for this molecule: `COc1ccc(S(=O)(=O)N(CC(C)C)C[C@@H](O)[C@H](Cc2ccccc2)NC(=O)OC[C@@H]2CCCNC2)cc1`
> 233000

====

System: Human immunodeficiency virus 1
Test: Antiviral activity against HIV1 subtype C isolate-plndie
Format: functional, organism-based
Details: Human immunodeficiency virus 1, subtype C isolate-plndie
measurement_name: EC50 (µM)
Value expressed in µM; do not type the unit.

- smiles_representation: "COc1ccc(S(=O)(=O)N(CC(C)C)C[C@@H](O)[C@H](Cc2ccccc2)NC(=O)[C@@H]2CCCNC2)cc1"
  assay_target: "Human immunodeficiency virus 1"
  EC50 / µM: 26.3

Could you now consider this next molecule?
Give me measured EC50, please, for this molecule: `CC(C)CN(C[C@@H](O)[C@H](Cc1ccccc1)NC(=O)O[C@H]1CO[C@H]2OCC[C@H]21)S(=O)(=O)c1ccc(N)cc1`
1.26

====

Assay: Selectivity index, ratio of CC50 for cytotoxicity against HEK293T cells to IC50 of antiviral activity against HIV1
Type: toxicity, cell-based
Settings: human, read-out: Ratio CC50/IC50
// selectivity ratio lookup, one value per entry

- smiles_representation: "CC(C)CN(C[C@@H](O)[C@H](Cc1ccccc1)NC(=O)[C@@H]1CCCN(C)C1)S(=O)(=O)c1ccc(C(F)(F)F)cc1"
  selectivity ratio: "> 119000"
- smiles_representation: "CC(C)CN(C[C@@H](O)[C@H](Cc1ccccc1)NC(=O)[C@@H]1CCCNC1)S(=O)(=O)c1ccc(C(F)(F)F)cc1"
  selectivity ratio: "> 222000"
- smiles_representation: "CC(C)CN(C[C@@H](O)[C@H](Cc1ccccc1)NC(=O)OC[C@H]1CCCNC1)S(=O)(=O)c1ccc(C(F)(F)F)cc1"
  selectivity ratio: "> 8580"
- smiles_representation: "CC(C)CN(C[C@@H](O)[C@H](Cc1ccccc1)NC(=O)OC[C@@H]1CCCNC1)S(=O)(=O)c1ccc(N)cc1"
  selectivity ratio: "> 78700"
- smiles_representation: "COc1ccc(S(=O)(=O)N(CC(C)C)C[C@@H](O)[C@H](Cc2ccccc2)NC(=O)[C@@H]2CCCCN2)cc1"
  selectivity ratio: "> 68500"

Give me measured selectivity ratio, please, for this compound: `CC(C)CN(C[C@@H](O)[C@H](Cc1ccccc1)NC(=O)OC[C@@H]1CCCNC1)S(=O)(=O)c1ccc(C(F)(F)F)cc1`
> 13000

Give me measured selectivity ratio, please, for this compound: `COc1ccc(S(=O)(=O)N(CC(C)C)C[C@@H](O)[C@H](Cc2ccccc2)NC(=O)[C@@H]2CCCNC2)cc1`
> 769000
